- Target entity: Alpha-bungarotoxin (Bungarus multicinctus) (UniProt P60615)
- Sequence (P60615 whole entry, looked up): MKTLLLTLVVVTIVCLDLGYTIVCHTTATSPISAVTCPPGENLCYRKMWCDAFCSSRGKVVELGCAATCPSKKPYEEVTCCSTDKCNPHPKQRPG
- Assay notes: compounds binding labelled alpha-BTX control protein – biochemical, small-molecule microarray, Alexa647 label, 635/667 nm fluorescence, artefact control for SMM control protein annotation, profiling panel (AID 1117)
- Details: alpha-BTX-A647 binding fluorescence, higher = more signal
# composite z-score listing for each entry below
// no unit, no text: just the number

Here is how some compounds turned out for composite z-score.
| Compound | Target entity | Measured metric | Measurement |
| --- | --- | --- | --- |
| COC(=O)C1=CC(CCCO)=CC(c2cccs2)N(Cc2cc3c(cc2Br)OCO3)C=C1C(=O)OC (stereo not given) | Alpha-bungarotoxin (Bungarus multicinctus) (UniProt P60615) | composite z-score | 2.49 |
| O=C1O[C@H](c2ccccc2)[C@H](c2ccccc2)N2[C@H]1[C@@H](C(=O)N1CCN(c3ncccn3)CC1)[C@]1(C(=O)Nc3ccc(C#CCCO)cc31)[C@H]2c1ccc(O)cc1 | Alpha-bungarotoxin (Bungarus multicinctus) (UniProt P60615) | composite z-score | 1.55 |
| COCCOC(=O)N1C(=O)[C@@]2(c3ccccc31)[C@H](C(=O)N1CCN(c3ncccn3)CC1)[C@H]1C(=O)O[C@H](c3ccccc3)[C@H](c3ccccc3)N1[C@@H]2c1ccccc1OCCO | Alpha-bungarotoxin (Bungarus multicinctus) (UniProt P60615) | composite z-score | 0.749 |

Looking for the measured composite z-score of CN(C)CCCCNC(=O)[C@H]1C[C@H]2C(=O)NCC(=O)N2[C@H]1c1ccc(O)cc1 , can you help?
0.52

====

- Assay notes: probe aShh binding to arrayed compounds – biochemical, biotinylated probe, 635/667 nm fluorescence, primary screen (AID 1114);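 note: probe is biotin-labelled aShh protein from a stem cell growth factor screen; measures binding of labelled protein to compounds printed on the slide; score merges feature fluorescence at 667 nm with signal-to-noise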
- Details: small-molecule microarray, higher = more signal
# composite z-score listing for each entry below
// no unit, no text: just the number

Here is how some compounds turned out for composite z-score.
| Given smiles | Measurement |
| --- | --- |
| COc1ccc([Si](C)(C)[C@H]2[C@H](CCO)O[C@@]3(C(=O)N(Cc4cccc(N5C(=O)c6ccccc6Oc6ccccc65)c4)c4ccccc43)[C@@H]2C)cc1 | -0.262 |
| O=C1O[C@@H](c2ccccc2)[C@@H](c2ccccc2)N2[C@@H](c3ccc(OCCO)cc3)[C@]3(C(=O)Nc4ccc(C#CCCO)cc43)[C@@H](C(=O)O)[C@H]12 | 0.582 |

Looking for the measured composite z-score of COC(=O)C(CC#Cc1ccc2c(c1)[C@]1(C(=O)N2)[C@H](C(=O)NC[C@H](O)c2ccccc2)[C@H]2C(=O)O[C@H](c3ccccc3)[C@H](c3ccccc3)N2[C@@H]1c1ccccc1OCCO)C(=O)OC , can you help?
-0.167

And for Cc1ccc(S[C@]2(C(=O)NCCCN(C)C)CC(=O)N(C3Cc4ccccc4C3)[C@@H]2c2ccc(CO)cc2I)cc1 ?
0.207

And for O=C1C[C@@](C(=O)NCc2ccccc2)(c2ccc([N+](=O)[O-])cc2)[C@@H](c2ccc(CO)cc2)N1C1CCCCC1 ?
0.0697

====

- Assay notes: small molecules captured by biotinylated probe aFGF10 – biochemical, small-molecule microarray, fluorescence 635/667, stem cell growth factor project, primary screen (AID 1071);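 note: score merges 667 nm spot intensity and signal to noise from triplicate slides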
- Details: higher = more signal
Could you label it yes (1) if measured composite z-score is 0.08 or higher, and no (0) otherwise?

Recorded results for 3 molecules are shown here.
| Molecule | Category |
| --- | --- |
| C=C(CCCC)/C(=C/C[C@H](OC(=O)c1ccncc1)c1ccccc1OCCO)c1cc(C(=O)OC)ccc1OC | yes (1) |
| CC(C)OC(=O)CC(=O)CC(O)c1cccc([N+](=O)[O-])c1 (configuration not stated) | yes (1) |
| CCOc1cc(C(O)C2C=CC3C(=O)N(c4ccccc4)C(=O)C3N2Nc2ccccc2F)ccc1O (configuration not stated) | yes (1) |

Does composite z-score meet or surpass 0.08 for COCCOC(=O)N1C(=O)[C@@]2(c3ccccc31)[C@H](C(=O)N1CCN(c3ncccn3)CC1)[C@H]1C(=O)O[C@H](c3ccccc3)[C@H](c3ccccc3)N1[C@@H]2c1ccccc1OCCO ?
yes (1)

And for COC(=O)c1cccc([C@H]2OC(=CC(=O)OC(C)C)C[C@@H](c3cccc(C(=O)OC)c3)O2)c1 ?
yes (1)

====

- Assay notes: COS7 lysate on small-molecule microarray, probe aHis, 635 nm (AID 1123);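 note: z-score combines 667nm fluorescence intensity with signal-to-noise per printed compound spot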
- Details: COS7 cell lysate, fluorescence, higher = more signal
Measured metric: composite z-score
// no unit, no text: just the number

| Molecule | composite z-score |
| --- | --- |
| CN(C)CCCC[C@@H]1NC(=O)[C@@H]2C[C@H](C(=O)NCCCCCCNC(=O)CS)[C@H](c3ccc(O)cc3)N2C1=O | 1.06 |
| CC(C)(C)OC(=O)CC[C@@]1(C(=O)NCCN2CCOCC2)N=C(c2ccc(OCCCO)cc2)O[C@@H]1c1ccccc1CN=[N+]=[N-] | 1.17 |
| COCCOC(=O)N1C(=O)[C@@]2(c3cc(C#CCNC(N)=O)ccc31)[C@H](C(=O)Nc1nc3ccccc3s1)[C@H]1C(=O)O[C@H](c3ccccc3)[C@H](c3ccccc3)N1[C@@H]2c1ccccc1OCCO | 1.17 |
| CC1CC/C=C\[C@H]2OC34C=CCN(c5ccc(Cl)cc5)C(=O)[C@H]3N(CCCCCCO)C(=O)[C@]4(C)C2C(=O)O1 (stereo partly drawn) | 0.383 |
| CO[C@H]1O[C@H](CO)[C@@H](OC(=O)Nc2ccc3c(c2)OCO3)[C@H](OC(=O)Nc2ccccc2-c2ccccc2)[C@H]1OC(=O)Nc1ccccc1-c1ccccc1 | 2.27 |

Looking for the measured composite z-score of [N-]=[N+]=Nc1ccccc1[C@@H]1OC(c2ccc(OCCCO)cc2)=N[C@]1(Cc1ccccc1)C(=O)NCCN1CCOCC1 , can you help?
2.86

And for COc1ccc(CCNC(=O)[C@@H]2c3ccccc3C(=O)N(Cc3ccccc3OC)[C@H]2c2ccc(CO)cc2)cc1 ?
1.59

And for CC(C)=CCCC(C)=CC(O)C1C=CC2C(=O)NC(=O)C2N1Nc1ccc(Cl)cc1Cl (stereo not drawn) ?
1.49

====

- Tested on: glycogen synthase kinase-3 (GSK3A per assay name; protocol says GSK3B)
- Assay notes: compounds binding glycogen synthase kinase-3 – biochemical, small-molecule microarray, 635 nm fluorescence, GSK3A, primary screen (AID 1103); note: the record names both GSK3A and GSK3B
- Details: fluorescence 635 nm, higher = more signal
Measured metric: composite z-score
// no unit, no text: just the number

Here is how some compounds turned out for composite z-score.
| Compound | Measured metric | Measurement |
| --- | --- | --- |
| C[C@@H]1ON(c2ccc(I)cc2)[C@H](c2cccc(NC(=O)OCC3c4ccccc4-c4ccccc43)c2)[C@H]1C(=O)N1C(=O)OC[C@H]1Cc1ccccc1 | composite z-score | 0.529 |
| O=C1[C@@H]2[C@@H](CC(COc3ccccc3)=C([C@H](O)CCc3ccccc3)[C@@H]2CO)C(=O)N1Cc1ccccc1 | composite z-score | -0.0949 |
| O=C1C2C=CC(C(O)C3CCCCC3)N(n3cnnc3)C2C(=O)N1Cc1ccccc1 (stereo not given) | composite z-score | 1.1 |
| C=C(CCCC)/C(=C/C[C@H](OC(=O)c1ccncc1)c1ccc(OCCO)cc1)c1cnc2ccccc2c1 | composite z-score | 0.829 |

Looking for the measured composite z-score of COCCOC(=O)N1C(=O)[C@@]2(c3cc(C#CCC(C(=O)OC)C(=O)OC)ccc31)[C@H](C(N)=O)[C@H]1C(=O)O[C@H](c3ccccc3)[C@H](c3ccccc3)N1[C@@H]2c1ccc(O)cc1 , can you help?
0.863

And for C=C(COC)C(=O)CC[C@@H](OC(C)=O)c1ccccc1OCCO ?
-0.0163

And for CCOC(=O)C1=CCC(c2cc3ccccc3[nH]2)N(CCN2CC(C(=O)OCC)=CCC2c2cc3ccccc3[nH]2)C1 (stereo not given) ?
1.03

And for C=C(COC)C(=O)CC[C@H](OC(=O)c1cccnc1)c1ccc(OCCO)cc1 ?
0.538

And for CN(C)C(=O)[C@@]1(Cc2ccccc2CN=[N+]=[N-])COC(c2ccc(OCCCO)cc2)=N1 ?
-0.958

And for O=C1C[C@@](C(=O)NC2CC2)(c2ccc([N+](=O)[O-])cc2)[C@@H](c2ccc(CO)cc2)N1C1CCCCC1 ?
0.808

====

- Target entity: Fibroblast growth factor 2 (Homo sapiens)
- Assay notes: basic fibroblast growth factor binding to printed compounds – biochemical, small-molecule microarray, 635/667 nm fluorescence, primary screen (AID 1133)
- Details: FGF2, fluorescence 635/667, higher = more signal
# composite z-score listing for each entry below
// no unit, no text: just the number

| Molecule | composite z-score |
| --- | --- |
| COCCOC(=O)N1C(=O)[C@@]2(c3cc(C#CCC(C(=O)OC)C(=O)OC)ccc31)[C@H](C(=O)Nc1nc3ccccc3s1)[C@H]1C(=O)O[C@H](c3ccccc3)[C@H](c3ccccc3)N1[C@@H]2c1ccc(O)cc1 | 1.46 |

Looking for the measured composite z-score of CN1C(=O)C2C(C1=O)C1C=C(c3ccc(CO)cc3)C2C(C2CC2)N1C (configuration not stated) , can you help?
-0.124

And for O=C1C[C@@](C(=O)NC2CC2)(c2ccc([N+](=O)[O-])cc2)[C@@H](c2ccc(CO)cc2)N1C1CCCCC1 ?
1.64

And for C=C(COC)C(=O)CC[C@@H](OC(C)=O)c1ccccc1OCCO ?
1.09

And for C=CCNC(=O)[C@H]1[C@@H]2C(=O)O[C@@H](c3ccccc3)[C@@H](c3ccccc3)N2[C@@H](c2ccc(OCCO)cc2)[C@]12C(=O)Nc1ccccc12 ?
-0.342

And for CC(C)OC(=O)CC(=O)CC(O)c1cccc([N+](=O)[O-])c1 (configuration not stated) ?
-0.277

Origin of measurements: PubChem BioAssay
